Assay: basal RPMI8226 viability, no added stimulus, profiling panel, cell-based, calcein-AM fluorescence, 48 h, PK04 Diversity Set (AID 1166);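 also: cells grown under basal conditions without added stimulus; test concentration not given here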
Conditions: RPMI8226 myeloma viability, higher = more signal
quantityMeasured: z-score
Give bare numbers.

Example molecules with recorded z-score:
IN: Answer with reported z-score of CO[C@H]1COC(=O)[C@H](C)NC(=O)[C@@H](C)COC(=O)[C@H]2CCCN2C(=O)CC=C[C@H]1C
OUT: 0.353

IN: Answer with reported z-score of COc1cccc([C@H]2Oc3ccc(OC)cc3C(=NOC[C@@H](O)[C@H]3O[C@@H]4OC(C)(C)O[C@@H]4[C@H]3O)[C@@H]2O)c1
OUT: -0.684

IN: Answer with reported z-score of O=C1C[C@@H](O)[C@@H](O)[C@@H]2[C@@H]3C(=O)N(c4cccc(Oc5ccccc5)c4)C(=O)[C@@H]3CC[C@H]12
OUT: -0.0527

IN: Answer with reported z-score of CC(CCN1CCCc2nc(C)c(C)cc21)=NO[C@@H](C)c1cc(-c2c(C)cc(C)cc2C)no1
OUT: -0.843

IN: Answer with reported z-score of COc1ccc(O[C@H]2C=C[C@@H](c3ccccc3)O[C@@H]2CON=C(C)CCN2CCc3nc(-c4ccccc4)c(-c4ccccc4)cc3C2)cc1
OUT: -0.439

Parameter requested: z-score. Apply to each item below.
1. CC(C)=CCCC(C)=CCON=C1C[C@@H](O)[C@@H](O)[C@@H]2[C@@H]3C(=O)N(C[C@@H]4CCCO4)C(=O)[C@@H]3CC[C@H]12
2. CC(C)=CCCC(C)=CCON=C1C[C@@H](O)[C@@H](O)[C@@H]2[C@@H]3C(=O)N(C4CCCCC4)C(=O)[C@@H]3CC[C@@H]12
3. CC(CCC(=O)OC[C@H]1O[C@H](C#Cc2ccccc2)C=C[C@@H]1Oc1ccc(C)cc1)=NO[C@H](C)c1cn([C@H](CO)Cc2ccccc2)nn1
4. CO[C@H](C1CCCCC1)[C@H](C)C=CCC(=O)OCCCc1ccccc1
5. COC(=O)[C@H](C)NC(=O)CCC1CC(OC(=O)NCc2cccc3ccccc23)CC2(CCCC(COC(=O)NCC(c3ccccc3)c3ccccc3)O2)O1 (stereo not given in full)
6. COC(=O)CC=C[C@@H](C)[C@@H](C=NOC[C@H]1O[C@H](c2ccccc2)C=C[C@@H]1Oc1ccc(OC)cc1)OC

OUT:
-0.674
-1.36
-3.97
0.182
-1.22
-0.209

----------
Test system: Sonic hedgehog protein (Shh)
Assay: small-molecule binders of Shh protein, primary screen, biochemical, small-molecule microarray, 635/667 nm fluorescence (AID 1151);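 also: Shh protein binding to compounds spotted on small-molecule microarray slides; score combines spot fluorescence intensity with signal-to-noise across triplicate slides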
Conditions: small-molecule microarray binding, 635 nm fluorescence; higher = more signal
Tag: condition met if measured composite z-score is not below 0.7, condition not met if it is.

Completed entries (count: 5):
IN: Dear colleague, could you confirm whether CCOC(=O)[C@H](CC(C)C)NC(=O)CCC1CC(OC(=O)NCc2cccc3ccccc23)CC2(CCCC(COC(=O)NCc3ccncc3)O2)O1 (stereo not given in full) has composite z-score at or above 0.7?
OUT: condition met

IN: Dear colleague, could you confirm whether COC(=O)[C@H]1[C@@H](O)[C@@]2(O)c3ccccc3O[C@@]2(c2ccccc2)[C@@H]1c1ccccc1 has composite z-score at or above 0.7?
OUT: condition not met

IN: Dear colleague, could you confirm whether CO[C@@H]1COC(=O)[C@H](CCSC)NC(=O)CC=C[C@@H](C)COC(=O)CCC[C@H]1C has composite z-score at or above 0.7?
OUT: condition met

IN: Dear colleague, could you confirm whether CC(C)CCN1CCc2nc(COc3ccccc3)c3c(c2C1)CO[C@@H](C)C3 has composite z-score at or above 0.7?
OUT: condition not met

IN: Dear colleague, could you confirm whether COC(=O)[C@@H]1CC[C@H](C)[C@@H](c2ccc(C)cc2)N1C(=O)c1ccc(C=NO[C@H](C)c2cn([C@@H]3COC[C@H]3O)nn2)cc1 has composite z-score at or above 0.7?
OUT: condition met

New cases:
IN: Dear colleague, could you confirm whether CC(C)CON=C1C[C@@H](O)[C@@H](O)[C@@H]2[C@@H]3C(=O)N(Cc4ccc5c(c4)OCO5)C(=O)[C@@H]3CC[C@H]12 has composite z-score at or above 0.7?
OUT: condition met

IN: Dear colleague, could you confirm whether CC1O[C@H]2C3=C(C(=O)[C@@H]4O[C@@H]4[C@H]3O)[C@@H]1C1[C@@H](C)OC=C3[C@H](O)C4O[C@@H]4C(=NOCc4ccccc4)[C@]312 (stereo not given in full) has composite z-score at or above 0.7?
OUT: condition not met

IN: Dear colleague, could you confirm whether CCOC(=O)[C@H](CC(C)C)NC(=O)CCC1CC(OC(=O)NCCc2ccc(F)cc2)CC2(CCCC(COC(=O)NCCc3ccc(Cl)cc3)O2)O1 (stereo not given in full) has composite z-score at or above 0.7?
OUT: condition met

IN: Dear colleague, could you confirm whether C=COC[C@@H]1CN2[C@@H](CC[C@@H](C)[C@@H]2c2ccc(Br)cc2)C(=O)O1 has composite z-score at or above 0.7?
OUT: condition not met

IN: Dear colleague, could you confirm whether CC(CCC(=O)OC[C@H]1O[C@H](C#Cc2ccccc2)C=C[C@@H]1Oc1ccc(C)cc1)=NO[C@H](C)c1cn([C@H](CO)Cc2ccccc2)nn1 has composite z-score at or above 0.7?
OUT: condition not met

IN: Dear colleague, could you confirm whether CCOC(=O)[C@H](Cc1ccccc1)NC(=O)OC1CC(CCC2CC(CC)=NO2)OC2(CCCC(COC(=O)NCCC(C)C)O2)C1 (stereo not given in full) has composite z-score at or above 0.7?
OUT: condition not met

IN: Dear colleague, could you confirm whether CCOC(=O)[C@H](CC(C)C)NC(=O)CCC1CC(OC(=O)NCCc2ccc(F)cc2)CC2(CCCC(COC(=O)NCC(c3ccccc3)c3ccccc3)O2)O1 (stereo not given in full) has composite z-score at or above 0.7?
OUT: condition met

IN: Dear colleague, could you confirm whether CC(C)CON=C1C[C@@H](O)[C@@H](O)[C@@H]2[C@@H]3C(=O)N(c4ccc(F)cc4F)C(=O)[C@@H]3CC[C@H]12 has composite z-score at or above 0.7?
OUT: condition met

----------
Biological target: Dickkopf-related protein 1 (Homo sapiens) (UniProt O94907)
Sequence (O94907 whole entry, looked up): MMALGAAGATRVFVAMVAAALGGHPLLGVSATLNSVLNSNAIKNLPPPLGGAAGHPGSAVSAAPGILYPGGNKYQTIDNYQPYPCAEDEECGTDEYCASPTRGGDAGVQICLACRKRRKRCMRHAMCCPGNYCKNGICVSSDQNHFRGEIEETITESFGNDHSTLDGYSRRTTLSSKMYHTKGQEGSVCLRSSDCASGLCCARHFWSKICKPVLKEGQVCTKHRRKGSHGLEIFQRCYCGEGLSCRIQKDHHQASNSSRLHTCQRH
Test: DKK1 binders on small-molecule microarrays, primary screen, biochemical, small-molecule microarray, 635 nm fluorescence scan (AID 1106);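 also: score merges emission near 667 nm with signal to noise over three replicate slides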
Conditions: DKK1 binding, higher = more signal
Tag: rule met if measured composite z-score is not below 0.4, rule not met if it is.

Completed entries (count: 6):
IN: Dear colleague, could you confirm whether CC(CCN1CCCCc2nc(C)c(C)cc21)=NO[C@H](C)c1cn([C@H](CO)Cc2ccccc2)nn1 has composite z-score at or above 0.4?
OUT: rule met

IN: Dear colleague, could you confirm whether COc1cccc([C@H]2Oc3ccc(OC)cc3C(=NOC[C@@H](O)COCc3ccco3)[C@@H]2O)c1 has composite z-score at or above 0.4?
OUT: rule not met

IN: Dear colleague, could you confirm whether C=CC[C@@H]1C=C[C@H](ON=C[C@@H](C)[C@H](OCc2ccccc2)C(C)C)[C@@H](CO)O1 has composite z-score at or above 0.4?
OUT: rule not met

IN: Dear colleague, could you confirm whether C[C@H]1CC[C@H]2C(=O)O[C@H](COc3ccc(C(C)(C)C)cc3)CN2[C@@H]1c1ccc(Br)cc1 has composite z-score at or above 0.4?
OUT: rule not met

IN: Dear colleague, could you confirm whether COc1ccc(COC(=O)NN=C2C[C@@H](O)[C@@H](O)[C@@H]3[C@@H]4C(=O)N(c5cccc(Oc6ccccc6)c5)C(=O)[C@@H]4CC[C@@H]23)cc1 has composite z-score at or above 0.4?
OUT: rule not met

IN: Dear colleague, could you confirm whether CCOC(=O)C1=NO[C@@]2(C=C(Br)C3(OCCCO3)[C@H]3O[C@H]32)C1 has composite z-score at or above 0.4?
OUT: rule met

New cases:
IN: Dear colleague, could you confirm whether O=C1C[C@@H](O)[C@@H](O)[C@@H]2[C@@H]3C(=O)N(Cc4ccc5c(c4)OCO5)C(=O)[C@@H]3CC[C@H]12 has composite z-score at or above 0.4?
OUT: rule met

IN: Dear colleague, could you confirm whether C[C@H]1COC(=O)[C@@H]2CCCN2C(=O)[C@@H](C)COC(=O)[C@H](Cc2ccccc2)NC1=O has composite z-score at or above 0.4?
OUT: rule not met

----------
System: Sam68 (KHDRBS1)
Assay: Sam68 small-molecule binders, primary screen, biochemical, small-molecule microarray, 635 nm fluorescence (AID 1125);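 also: score merges 667 nm channel intensity with signal to noise over triplicate slides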
Settings: small-molecule microarray binding, higher = more signal
Give measured composite z-score for each item. Keep answers brief.
Give bare numbers.

IN: Give reported composite z-score for COC(=O)[C@@H]1CC[C@H](C)[C@@H](c2ccc(C)cc2)N1C(=O)c1ccc(C=NOCC[C@@H]2C=C[C@H](OC(C)=O)[C@@H](COC(C)=O)O2)cc1 (Sam68 (KHDRBS1))
OUT: 0.926

IN: Give reported composite z-score for COc1ccc(O[C@H]2C=C[C@@H](c3ccccc3)O[C@@H]2CON=C(C)CCN2CCc3nc(-c4ccccc4)c(-c4ccccc4)cc3C2)cc1 (Sam68 (KHDRBS1))
OUT: -0.83

IN: Give reported composite z-score for COc1ccc(C#C[C@@H]2C=C[C@H](OC(C)=O)[C@@H](COC(C)=O)O2)cc1 (Sam68 (KHDRBS1))
OUT: 0.112

IN: Give reported composite z-score for CCOC(=O)[C@H](Cc1ccccc1)NC(=O)CCC1CC(OC(=O)NCCc2ccc(F)cc2)CC2(CCCC(COC(=O)NCCCN3CCCC3=O)O2)O1 (stereo partly drawn) (Sam68 (KHDRBS1))
OUT: 1.29

IN: Give reported composite z-score for COC(=O)[C@H](C)NC(=O)CCC1CC(OC(=O)NCc2ccc3c(c2)OCO3)CC2(CCCC(COC(=O)NCC(c3ccccc3)c3ccccc3)O2)O1 (stereo partly drawn) (Sam68 (KHDRBS1))
OUT: 1.29

Parameter requested: composite z-score. Apply to each item below.
1. COC(=O)CC=C[C@@H](C)[C@@H](C=NO[C@H](C)c1cn([C@H](CO)Cc2ccccc2)nn1)NS(=O)(=O)c1ccc(C)cc1
2. COc1cccc([C@H]2Oc3ccc(OC)cc3C(=NOC[C@@H](O)COCc3ccco3)[C@@H]2O)c1
3. CO[C@H]1COC(=O)[C@H](C)NC(=O)CC=C[C@@H](C)[C@H](OC)COC(=O)[C@@H](OCc2ccccc2)C=C[C@@H]1C
4. O=c1n(Cc2cc3c(cc2Cl)OCO3)c(=O)n2n1CC[C@@H]1C(=NOCc3ccccc3)[C@H]3O[C@H]3[C@@H](O)[C@@H]12
5. C[C@@H](c1ccccc1)N1C(=O)[C@H]2[C@H]3[C@H](O)[C@H](O)CC(=NO[C@@H]4O[C@H](CO)[C@@H](O)[C@H](O)[C@H]4O)[C@H]3CC[C@H]2C1=O

OUT:
1. 0.566
2. -2.24
3. -0.206
4. 0.529
5. 0.648

Parameter requested: composite z-score. Apply to each item below.
1. COC(=O)[C@@H]1CC[C@H](C)[C@@H](c2ccc(C)cc2)N1C(=O)c1ccc(C=NO[C@@H]2O[C@H](COC(C)=O)[C@@H](OC(C)=O)[C@H](OC(C)=O)[C@H]2OC(C)=O)cc1
2. CCOC(=O)NN=C1C[C@@H](O)[C@@H](O)[C@@H]2[C@@H]3C(=O)N([C@@H](C)c4ccccc4)C(=O)[C@@H]3CC[C@H]12
3. C#CCCCON=C1C[C@@H](O)[C@@H](O)[C@@H]2[C@@H]3C(=O)N(CCC(=O)OCC)C(=O)[C@@H]3CC[C@H]12

OUT:
1: 1.05; 2: 0.338; 3: 1.32
